procedure details: Microsomal stability in mouse liver microsomes assessed as half life
Assay type: ADME, Microsome
property label: half-life

Exam item: Determine its reported half-life: CNC(=O)OC(C(=O)O)c1ccc(F)c(-c2ccc(OC)c(C(=O)N[C@H]3[C@@H](C(=O)Nc4ccc(F)c(C(F)(F)F)c4)[C@H]4CC[C@@H]3/C4=C\C3CC3)c2)c1 (stereo in doubt; 39)
Marked response: > 2 h

====

procedure details: Thermodynamic aqueous solubility of compound in phosphate buffer at pH 7.4 by reversed-phase ultrahigh pressure liquid chromatography
Format: physicochemical
condition set: phosphate buffer, read-out: Therm_solubility
property label: solubility thermodynamic (µg/mL)
Could you give me the number in µg/mL? Just the number is fine.

Exam item: Given the compound COc1ccc(-c2cc(CC(=O)O)ccc2F)cc1C(=O)N[C@H]1[C@@H](C(=O)Nc2ccc(F)c(C(F)(F)F)c2)[C@H]2CC[C@@H]1/C2=C\c1cnoc1 , write its reported solubility thermodynamic.
Marked response: 130

Exam item: Input COc1ccc(-c2cc(C(O)C(=O)O)ccc2F)cc1C(=O)N[C@H]1[C@@H](C(=O)Nc2ccc(F)c(C(F)(F)F)c2)[C@H]2CC[C@@H]1/C2=C\c1cnoc1 (stereo not given in full) , output reported solubility thermodynamic.
Marked response: 60

Exam item: Kindly indicate its recorded solubility thermodynamic. Item: CNC(=O)OC(C(=O)O)c1ccc(F)c(-c2ccc(OC)c(C(=O)N[C@H]3[C@@H](C(=O)Nc4ccc(F)c(C(F)(F)F)c4)[C@H]4CC[C@@H]3/C4=C\C3CC3)c2)c1 (stereo in doubt; 39)
Marked response: 130

Exam item: Give solubility thermodynamic for COc1ccc(-c2cc(C(=O)O)ccc2F)cc1C(=O)N[C@H]1[C@@H](C(=O)Nc2ccc(F)c(C(F)(F)F)c2)[C@H]2CC[C@@H]1/C2=C\c1cnoc1
Marked response: 15

====

procedure details: Microsomal stability in rat liver microsomes assessed as compound remaining measured after 30 mins
Type: ADME, Microsome
condition set: read-out: Stability
Field: remaining at 0.5 h. Provide a value for each of the molecules that follow.

Exam item: Specify remaining at 0.5 h for COc1ccc(-c2cc(C(=O)O)ccc2F)cc1C(=O)N[C@H]1[C@@H](C(=O)Nc2ccc(F)c(C(F)(F)F)c2)[C@H]2CC[C@@H]1/C2=C\c1ccccc1 and stop.
Marked response: > 90%

Exam item: Return the recorded remaining at 0.5 h value; entry: COc1ccc(-c2cc(C(=O)O)ccc2F)cc1C(=O)N[C@H]1[C@@H](C(=O)Nc2ccc(F)c(C(F)(F)F)c2)[C@H]2CC[C@@H]1/C2=C\c1cnoc1
Marked response: > 90%

Exam item: Specify measured remaining at 0.5 h for CNC(=O)OC(C(=O)O)c1ccc(F)c(-c2ccc(OC)c(C(=O)N[C@H]3[C@@H](C(=O)Nc4ccc(F)c(C(F)(F)F)c4)[C@H]4CC[C@@H]3/C4=C\c3cnoc3)c2)c1 (stereo partly drawn) .
Marked response: > 90%

====

subject of test: Cytochrome P450 2C8 (Homo sapiens)
Sequence (P10632 whole entry): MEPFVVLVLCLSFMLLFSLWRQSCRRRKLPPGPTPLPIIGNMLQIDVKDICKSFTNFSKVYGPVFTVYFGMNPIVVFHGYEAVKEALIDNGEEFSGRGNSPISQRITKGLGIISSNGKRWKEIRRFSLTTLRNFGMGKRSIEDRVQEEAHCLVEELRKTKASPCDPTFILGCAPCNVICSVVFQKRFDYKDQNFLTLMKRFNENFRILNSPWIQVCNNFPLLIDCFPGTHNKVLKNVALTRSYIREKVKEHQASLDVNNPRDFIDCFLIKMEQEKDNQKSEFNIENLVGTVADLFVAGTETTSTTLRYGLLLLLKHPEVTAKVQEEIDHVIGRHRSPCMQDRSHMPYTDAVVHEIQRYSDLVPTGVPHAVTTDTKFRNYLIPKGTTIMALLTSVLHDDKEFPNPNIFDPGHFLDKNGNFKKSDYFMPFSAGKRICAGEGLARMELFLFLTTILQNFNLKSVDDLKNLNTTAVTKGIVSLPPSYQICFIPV
property label: pIC50
Entry type: numeric. Quantity: pIC50, the -log10 of concentration in molar units.

Exam item: State recorded pIC50 with Cytochrome P450 2C8 (Homo sapiens), entry CNC(=O)OC(C(=O)O)c1ccc(F)c(-c2ccc(OC)c(C(=O)N[C@H]3[C@@H](C(=O)Nc4ccc(F)c(C(F)(F)F)c4)[C@H]4CC[C@@H]3/C4=C\C3CC3)c2)c1 (stereo in doubt; 39) , no comment.
Marked response: 5.59

====

What remaining at 0.5 h was measured for each of the following?
procedure details: Microsomal stability in rat liver microsomes assessed as compound remaining measured after 30 mins
Format: ADME, Microsome
condition set: read-out: Stability

Exam item: Tell us which remaining at 0.5 h value is on record for COc1ccc(-c2cc(CC(=O)O)ccc2F)cc1C(=O)N[C@H]1[C@@H](C(=O)Nc2ccc(F)c(C(F)(F)F)c2)[C@H]2CC[C@@H]1/C2=C\c1cnoc1
Marked response: > 90%

Exam item: Using known records, supply remaining at 0.5 h for COc1ccc(-c2cc(C(=O)O)ccc2F)cc1C(=O)N[C@H]1[C@@H](C(=O)Nc2ccc(F)c(C(F)(F)F)c2)[C@H]2CC[C@@H]1/C2=C\C(F)(F)F
Marked response: > 90%

Exam item: Quote remaining at 0.5 h reported for CNC(=O)OC(C(=O)O)c1ccc(F)c(-c2ccc(OC)c(C(=O)N[C@H]3[C@@H](C(=O)Nc4ccc(F)c(C(F)(F)F)c4)[C@H]4CC[C@@H]3/C4=C\C3CC3)c2)c1 (stereo in doubt; 40) please.
Marked response: > 90%

====

procedure details: Microsomal stability in rat liver microsomes assessed as half life
Assay type: ADME, Microsome
property label: half-life

Exam item: For the compound CNC(=O)OC(C(=O)O)c1ccc(F)c(-c2ccc(OC)c(C(=O)N[C@H]3[C@@H](C(=O)Nc4ccc(F)c(C(F)(F)F)c4)[C@H]4CC[C@@H]3/C4=C\C3CC3)c2)c1 (stereo in doubt; 39) , give its measured half-life value.
Marked response: > 2 h

====

subject of test: Relaxin receptor 1 (Homo sapiens)
Sequence (Q9HBX9 whole entry): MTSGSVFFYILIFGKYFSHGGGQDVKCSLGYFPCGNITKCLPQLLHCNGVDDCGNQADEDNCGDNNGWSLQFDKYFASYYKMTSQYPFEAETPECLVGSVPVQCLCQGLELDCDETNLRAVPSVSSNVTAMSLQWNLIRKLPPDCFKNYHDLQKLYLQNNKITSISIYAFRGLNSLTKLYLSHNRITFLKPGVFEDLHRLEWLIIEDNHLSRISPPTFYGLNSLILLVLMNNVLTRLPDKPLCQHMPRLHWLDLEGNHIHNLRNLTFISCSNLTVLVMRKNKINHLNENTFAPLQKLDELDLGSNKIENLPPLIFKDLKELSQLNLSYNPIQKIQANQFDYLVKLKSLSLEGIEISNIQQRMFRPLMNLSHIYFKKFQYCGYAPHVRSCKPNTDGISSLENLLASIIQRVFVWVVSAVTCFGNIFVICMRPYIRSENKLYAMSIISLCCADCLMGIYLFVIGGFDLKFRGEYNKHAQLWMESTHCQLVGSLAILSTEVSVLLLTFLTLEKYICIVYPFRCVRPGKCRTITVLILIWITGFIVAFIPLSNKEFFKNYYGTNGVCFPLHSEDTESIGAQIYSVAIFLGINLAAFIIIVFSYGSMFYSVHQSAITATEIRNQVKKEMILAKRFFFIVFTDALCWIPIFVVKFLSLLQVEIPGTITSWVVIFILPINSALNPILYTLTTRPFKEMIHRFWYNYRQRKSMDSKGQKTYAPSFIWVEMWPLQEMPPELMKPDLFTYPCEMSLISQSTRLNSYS
procedure details: Agonist activity at human RXFP1 stably expressed in HEK293 cells assessed as intracellular cAMP accumulation incubated for 30 mins by HTRF assay
property label: EC50 (nM)
Please reply with the bare figure in nM and do not write the unit itself.

Exam item: State EC50 (Relaxin receptor 1 (Homo sapiens)) of COc1cc(F)c(F)cc1C(=O)N[C@H]1[C@@H](C(=O)Nc2ccc(F)c(C(F)(F)F)c2)[C@H]2CC[C@@H]1/C2=C\c1c(Cl)cccc1Cl .
Marked response: 3700

Exam item: With Relaxin receptor 1 (Homo sapiens) as the test system, provide measured EC50 for this molecule: CNC(=O)OC(C(=O)O)c1ccc(F)c(-c2ccc(OC)c(C(=O)N[C@H]3[C@@H](C(=O)Nc4ccc(F)c(C(F)(F)F)c4)[C@H]4CC[C@@H]3/C4=C\C3CC3)c2)c1 (stereo in doubt; 39)
Marked response: 2

Exam item: Enter recorded EC50 with Relaxin receptor 1 (Homo sapiens) for COc1cc(F)c(F)cc1C(=O)N[C@H]1[C@@H](C(=O)Nc2ccc(F)c(C(F)(F)F)c2)[C@H]2CC[C@@H]1/C2=C1/C=Cc2ccccc21 here.
Marked response: 810

====

subject of test: Relaxin receptor 1 (Mus musculus)
Sequence (Q6R6I7 whole entry): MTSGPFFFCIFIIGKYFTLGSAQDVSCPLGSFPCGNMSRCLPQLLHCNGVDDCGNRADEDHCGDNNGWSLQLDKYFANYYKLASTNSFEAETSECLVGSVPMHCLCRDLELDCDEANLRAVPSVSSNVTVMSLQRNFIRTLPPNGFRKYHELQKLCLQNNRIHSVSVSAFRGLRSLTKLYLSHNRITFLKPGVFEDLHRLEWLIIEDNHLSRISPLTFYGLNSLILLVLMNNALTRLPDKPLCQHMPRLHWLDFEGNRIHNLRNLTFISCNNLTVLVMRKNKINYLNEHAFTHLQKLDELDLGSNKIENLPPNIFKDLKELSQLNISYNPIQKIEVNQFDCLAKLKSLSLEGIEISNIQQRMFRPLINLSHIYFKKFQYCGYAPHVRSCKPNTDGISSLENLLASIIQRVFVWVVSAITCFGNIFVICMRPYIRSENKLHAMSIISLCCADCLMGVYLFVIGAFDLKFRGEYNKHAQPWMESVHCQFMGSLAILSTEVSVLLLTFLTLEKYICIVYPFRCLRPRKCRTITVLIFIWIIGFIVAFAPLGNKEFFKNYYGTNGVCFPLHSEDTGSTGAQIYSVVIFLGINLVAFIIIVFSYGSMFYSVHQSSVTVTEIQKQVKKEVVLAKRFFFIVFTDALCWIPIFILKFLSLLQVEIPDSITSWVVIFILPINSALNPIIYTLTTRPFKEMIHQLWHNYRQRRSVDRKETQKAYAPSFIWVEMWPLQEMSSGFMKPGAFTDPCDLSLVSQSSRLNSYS
procedure details: Partial agonist activity at mouse RXFP1 expressed in HEK293 cells assessed as intracellular cAMP accumulation incubated for 30 mins by HTRF assay
Format: functional, cell-based
Field: pEC50. Provide a value for each of the molecules that follow.
In simple prose, pEC50 is minus the logarithm base ten of a concentration in moles per litre.

Exam item: Assign pEC50 to the following record: COc1ccc(-c2ccc(C(=O)O)cc2)cc1C(=O)N[C@H]1[C@@H](C(=O)Nc2ccc(F)c(C(F)(F)F)c2)[C@H]2CC[C@@H]1C2=C(C)C
Marked response: 5.64

Exam item: Provide only the value of recorded pEC50 for COc1ccc(-c2cc(C(=O)O)ccc2F)cc1C(=O)N[C@H]1[C@@H](C(=O)Nc2ccc(F)c(C(F)(F)F)c2)[C@H]2CC[C@@H]1/C2=C\C(F)(F)F
Marked response: 6.30

Exam item: Provide pEC50 value for the following molecule: COc1ccc(-c2cc(C(=O)O)ccc2F)cc1C(=O)N[C@H]1[C@@H](C(=O)Nc2ccc(F)c(C(F)(F)F)c2)[C@H]2CC[C@@H]1/C2=C\c1cnoc1
Marked response: 6.24
